Hey, just so you know, these numbers are from the supplement of paper PMC10724198.

Provide the reported protein stability index of each item.
test system: Saccharomyces cerevisiae; assay: protein stability index of tFT-peptide fusion (C-terminal peptide) (PSI (0-1 scale)); higher = more stable (slower turnover); conditions: genetic background: das1 deletion; temperature: 30 C
Lab note: write the figure by itself, no unit.

Notebook entry, Saccharomyces cerevisiae assay: protein stability index of VSLDNLPGVEKK [SUA7 C-terminal 12 aa] = ?
0.682

// same read-out, input: IKIFSERCDGKV [JJJ2 C-terminal 12 aa]
0.707

// same read-out, input: HHLTYLPSVPSL [MMO1 C-terminal 12 aa]
0.715

// same read-out, input: FLIHTPKHPPPT [POG1 C-terminal 12 aa]
0.698

// same read-out, input: PKETLHRSDHQG [YPR039W C-terminal 12 aa]
0.694

// same read-out, input: LKSVKHSIRVYT [YPR012W C-terminal 12 aa]
0.627
